Entries and their inhibition values follow.
# SYSTEM UNDER TEST: RAF proto-oncogene serine/threonine-protein kinase (Homo sapiens) (UniProt P04049);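 further: values are the mean percent inhibition of CRAF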
# Sequence (P04049 whole entry): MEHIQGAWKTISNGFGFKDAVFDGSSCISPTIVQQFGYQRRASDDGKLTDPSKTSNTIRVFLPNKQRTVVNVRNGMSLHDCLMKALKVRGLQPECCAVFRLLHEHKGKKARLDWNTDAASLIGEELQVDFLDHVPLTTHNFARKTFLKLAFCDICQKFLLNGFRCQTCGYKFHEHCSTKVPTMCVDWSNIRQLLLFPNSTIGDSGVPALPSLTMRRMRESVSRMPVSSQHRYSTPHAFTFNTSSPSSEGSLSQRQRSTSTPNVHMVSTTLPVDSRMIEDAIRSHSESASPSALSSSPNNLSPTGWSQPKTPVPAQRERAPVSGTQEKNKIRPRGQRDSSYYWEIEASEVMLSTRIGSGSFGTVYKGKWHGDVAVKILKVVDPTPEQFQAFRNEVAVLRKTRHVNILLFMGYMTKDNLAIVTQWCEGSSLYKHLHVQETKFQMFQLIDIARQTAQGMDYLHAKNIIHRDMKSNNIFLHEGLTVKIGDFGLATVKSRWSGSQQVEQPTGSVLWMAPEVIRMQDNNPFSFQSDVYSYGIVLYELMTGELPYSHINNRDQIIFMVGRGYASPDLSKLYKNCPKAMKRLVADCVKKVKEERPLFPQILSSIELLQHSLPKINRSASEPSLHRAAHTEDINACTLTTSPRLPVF
# SETUP CONDITIONS: at 1 µM
# unit: % | format: bare number

Completed entries (count: 5):
>  <MOLECULE>
N#Cc1c(NC(=O)CN2CCOCC2)sc2c1CCCC2

>  <DISPLAY UNIT>
%

>  <inhibition>
-1.23

$$$$
>  <MOLECULE>
CC1=C(C(=O)Nc2cc(Cl)c3[nH]ncc3c2)C(c2ccc(C(F)(F)F)cc2)CC(=O)N1 (stereo not given)

>  <DISPLAY UNIT>
%

>  <inhibition>
-5.81

$$$$
>  <MOLECULE>
CCn1c(-c2nonc2N)nc2c(C#CC(C)(C)O)ncc(OC3CCNCC3)c21

>  <DISPLAY UNIT>
%

>  <inhibition>
1.95

$$$$
>  <MOLECULE>
CCc1nn2ncccc2c1-c1ccnc(NC2CC2)n1

>  <DISPLAY UNIT>
%

>  <inhibition>
-3.3

$$$$
>  <MOLECULE>
CNC(=O)c1cc(-c2ccc(F)cc2)cc(-c2ccc(S(=O)(=O)N3CCCC3)cc2)c1N

>  <DISPLAY UNIT>
%

>  <inhibition>
-2.71

$$$$

Consider the additional molecule presented here.
# input What does the data say about its inhibition? Entry: CCn1c(-c2nonc2N)nc2ccccc21
# output 2.78
